pKi: −log10 of the molar value. Numbered stars: 1 amine (or outer) side, 2 acyl side, 3 side chain; on linkers, the order of the positions; unused ones are H or OH. Square brackets hold non-standard residues; d marks the D form. Peptide text beside a SMILES is read from it. * marks the point of attachment. NMeAla(cPr) = CN[C@@H](CC1CC1)C(=O)O; Isobutyloxycarbonyl = CC(C)COC(=O)*; X1 = O=C(C(=O)[*:2])C(CC1CC1)N[*:1]; Ala(cPr) = N[C@@H](CC1CC1)C(=O)O; Chg = N[C@H](C(=O)O)C1CCCCC1; Phg = N[C@H](C(=O)O)c1ccccc1
# pKi per entry for NS3 (Hepatitis C virus, UniProt A3EZJ3)
Quantity kind: pKi

Known results for compounds:
Problem: # lookup: pKi of CC(C)COC(=O)N[C@@H](C1CCCCC1)[C@@H](O)CN(CC1CC1)C(=O)NC(CC1CC1)C(=O)C(=O)NCC(=O)N[C@H](C(=O)O)c1ccccc1 (stereo partly drawn)
Result: 5.00

Problem: Consider the compound shown here: CC(C)COC(=O)N[C@H](C(=O)N(C)[C@@H](CC1CC1)C(=O)NC(CC1CC1)C(=O)C(=O)NCC(=O)N[C@H](C(=O)O)c1ccccc1)C1CCCCC1 (stereo partly drawn) (Isobutyloxycarbonyl-[Chg][NMeAla(cPr)][X1]G[Phg]-OH) What is its recorded pKi?
Result: 6.92

Problem: Report pKi for CC(C)COC(=O)N[C@H](C(=O)N[C@@H](CC1CC1)C(=O)NC(CC1CC1)C(=O)C(=O)NCC(=O)N[C@H](C(=O)N(C)C)c1ccccc1)C1CCCCC1 (stereo partly drawn) (Isobutyloxycarbonyl-[Chg][Ala(cPr)][X1]G[Phg]-NMe2) please.
Result: 7.30

(1) CC(C)COC(=O)N[C@H](C(=O)NN(CC1CC1)C(=O)NC(CC1CC1)C(=O)C(=O)NCC(=O)N[C@H](C(=O)O)c1ccccc1)C1CCCCC1 (stereo partly drawn)
(2) CC(C)COC(=O)N[C@H](C(=O)N(C)[C@@H](CC1CC1)C(=O)NC(CC1CC1)C(=O)C(=O)NCC(=O)N[C@H](C(=O)N(C)C)c1ccccc1)C1CCCCC1 (stereo partly drawn) (Isobutyloxycarbonyl-[Chg][NMeAla(cPr)][X1]G[Phg]-NMe2)
(3) CC(C)COC(=O)N[C@H](C(=O)N[C@@H](CC1CC1)C(=O)NC(CC1CC1)C(=O)C(=O)NCC(=O)N[C@H](C(=O)O)c1ccccc1)C1CCCCC1 (stereo partly drawn) (Isobutyloxycarbonyl-[Chg][Ala(cPr)][X1]G[Phg]-OH)
(4) CC(C)COC(=O)N[C@@H](C1CCCCC1)[C@@H](O)CC(=O)N[C@@H](CC1CC1)C(=O)NC(CC1CC1)C(=O)C(=O)NCC(=O)N[C@H](C(=O)O)c1ccccc1 (stereo partly drawn)
(5) CC(C)COC(=O)N[C@H](C(=O)CN(CC1CC1)C(=O)NC(CC1CC1)C(=O)C(=O)NCC(=O)N[C@H](C(=O)O)c1ccccc1)C1CCCCC1 (stereo partly drawn)
Problem: Sort (5 compounds) by pKi: min first. Return the labels ranked in the requested order, please.
Result: 4, 5, 1, 2, 3

The measurements presented in this section are drawn from ChEMBL document CHEMBL1146050.
